system: Human immunodeficiency virus 1; assay: Antiviral activity against wild type HIV1 infected in human MT4 cells assessed as protection against virus-induced cytopathogenicity after 5 days by MTT assay; conditions: Human immunodeficiency virus 1, MT4, 120 h
Metric name: EC50 (µg/mL)
Your answer should be a plain number; it is taken to be in µg/mL.

Req: State its EC50 for this molecule: O=C(Cc1cc(=O)oc2cc(O)ccc12)Nc1nc2ccc([N+](=O)[O-])cc2s1
Resp: 8

Req: State its EC50 for this molecule: COc1ccc2nc(NC(=O)Cc3cc(=O)oc4c3ccc3ccccc34)sc2c1
Resp: 100

Req: State its EC50 for this molecule: Cc1ccc2c(CC(=O)Nc3nc4ccc([N+](=O)[O-])cc4s3)cc(=O)oc2c1C
Resp: 9

Req: State its EC50 for this molecule: Cc1cc(C)c2oc(=O)cc(CC(=O)Nc3nc4ccc(F)cc4s3)c2c1
Resp: 38

Req: State its EC50 for this molecule: O=C(Cc1cc(=O)oc2cc(O)ccc12)Nc1nc2ccc(F)cc2s1
Resp: 21

Req: State its EC50 for this molecule: Cc1cc(C)c2oc(=O)cc(CC(=O)Nc3nc4ccc(Cl)cc4s3)c2c1
Resp: 65

Req: State its EC50 for this molecule: Cc1ccc2oc(=O)cc(CC(=O)Nc3nc4ccc([N+](=O)[O-])cc4s3)c2c1
Resp: 32

----------
tested on: Human immunodeficiency virus 1; assay: Antiviral activity against wild type HIV1 infected in human MT4 cells assessed as protection against virus-induced cytopathogenicity after 5 days by MTT assay; conditions: Human immunodeficiency virus 1, MT4, 120 h
Hi there, I'd appreciate the recorded EC50 for every entry that follows.
Your answer should be a plain number; it is taken to be in µg/mL.

Req: State its EC50 for this molecule: Cc1cn([C@H]2C[C@H](N=[N+]=[N-])[C@@H](CO)O2)c(=O)[nH]c1=O [ZIDOVUDINE]
Resp: 0.0012

Req: State its EC50 for this molecule: Cc1ccc2c(CC(=O)Nc3nc4ccc(Cl)cc4s3)cc(=O)oc2c1
Resp: 44

Req: State its EC50 for this molecule: Cc1ccc2oc(=O)cc(CC(=O)Nc3nc4cc(Cl)c(F)cc4s3)c2c1
Resp: 12

Req: State its EC50 for this molecule: Cc1ccc2oc(=O)cc(CC(=O)Nc3nc4ccc(Cl)cc4s3)c2c1
Resp: 27

Req: State its EC50 for this molecule: Cc1ccc2c(CC(=O)Nc3nc4ccc(F)cc4s3)cc(=O)oc2c1
Resp: 44

Req: State its EC50 for this molecule: Cc1cccc2c(CC(=O)Nc3nc4cc(Cl)c(F)cc4s3)cc(=O)oc12
Resp: 58

Req: State its EC50 for this molecule: O=C(Cc1cc(=O)oc2cc(O)ccc12)Nc1nc2cc(Cl)c(F)cc2s1
Resp: 100

Req: State its EC50 for this molecule: Cc1cccc2c(CC(=O)Nc3nc4ccc(F)cc4s3)cc(=O)oc12
Resp: 100

Req: State its EC50 for this molecule: Cc1ccc2c(CC(=O)Nc3nc4ccc(Cl)cc4s3)cc(=O)oc2c1C
Resp: 60

Req: State its EC50 for this molecule: Cc1cccc2c(CC(=O)Nc3nc4ccc([N+](=O)[O-])cc4s3)cc(=O)oc12
Resp: 12

----------
assay: Cytotoxicity against human mock-infected MT4 cells after 4 days by MTT assay; assay type: cell-based
Metric name: CC50 at 96 h

Req: State its CC50 at 96 h for this compound: O=C(Cc1cc(=O)oc2cc(O)ccc12)Nc1nc2ccc([N+](=O)[O-])cc2s1
Resp: > 8 µg/mL

Req: State its CC50 at 96 h for this compound: Cc1ccc2oc(=O)cc(CC(=O)Nc3nc4ccc(F)cc4s3)c2c1
Resp: > 20 µg/mL

Req: State its CC50 at 96 h for this compound: Cc1cn([C@H]2C[C@H](N=[N+]=[N-])[C@@H](CO)O2)c(=O)[nH]c1=O
Resp: 65.4 µg/mL

Req: State its CC50 at 96 h for this compound: Cc1ccc2c(CC(=O)Nc3nc4ccc(Cl)cc4s3)cc(=O)oc2c1C
Resp: > 60 µg/mL

Req: State its CC50 at 96 h for this compound: O=C(Cc1cc(=O)oc2cc(O)ccc12)Nc1nc2ccc(Cl)cc2s1
Resp: > 7 µg/mL

Req: State its CC50 at 96 h for this compound: Cc1cc(C)c2oc(=O)cc(CC(=O)Nc3nc4ccc(Cl)cc4s3)c2c1
Resp: > 65 µg/mL

Req: State its CC50 at 96 h for this compound: Cc1cc(C)c2oc(=O)cc(CC(=O)Nc3nc4cc(Cl)c(F)cc4s3)c2c1
Resp: > 16 µg/mL

Req: State its CC50 at 96 h for this compound: Cc1cc(C)c2oc(=O)cc(CC(=O)Nc3nc4ccc([N+](=O)[O-])cc4s3)c2c1
Resp: > 100 µg/mL

Req: State its CC50 at 96 h for this compound: Cc1ccc2c(CC(=O)Nc3nc4ccc(F)cc4s3)cc(=O)oc2c1
Resp: > 44 µg/mL

Req: State its CC50 at 96 h for this compound: Cc1cccc2c(CC(=O)Nc3nc4cc(Cl)c(F)cc4s3)cc(=O)oc12
Resp: > 58 µg/mL
